- System: MDA-MB-468 breast
- protocol-text: NCI tumour cell line growth inhibition, 48 h; in the data active = GI50 below about 0.43 µM; inactive = the rest
Respond with a class label; see active, inactive

{"molecule": "CCOC(=O)c1ccc(N(C=O)CCC(=O)CCl)cc1", "group": "active"}

Short answer needed: outcome of this test for `O=c1c2c(=NCCN3CCCC3)cc3c(=O)n(CCCN4CCOCC4)c(=O)c4ccc(c(O)n1CCCN1CCOCC1)c2c4-3` ?
active

Assay result, entry `CCSc1ccc([C@@H]2[C@@H](N)C(=O)N2c2cc(OC)c(OC)c(OC)c2)cc1` — outcome?
active

// return assay outcome for `CC[C@H](C)[C@H](NC(=O)NC(C)(C)C)C(=O)N(C)[C@H](C[C@@H](OC(C)=O)c1nc(C(=O)N[C@@H](Cc2ccccc2)C[C@H](C)C(=O)OC)cs1)C(C)C`
active

Any idea what this test logged for `O=C(c1nn(-c2ccc(Cl)cc2)cc1O)n1nc(C(F)(F)F)cc1-c1ccccc1` ?
inactive

GET /call?item= CCOC(=O)c1ccccc1SC(C[N+](=O)[O-])c1ccccc1 (configuration not stated) returns the recorded outcome of this test.
inactive

Name the outcome recorded for `COc1ccc(-c2nc(-c3ccccn3)c(-c3ccccn3)n2CC(C)C)cc1OC1CCCC1` in the assay.
inactive
